# Test system: Saccharomyces cerevisiae;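 also: PSI is a weighted mean of each variant's read distribution over the sorted stability bins, computed only for variants having over 10 reads in total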
# assay.method.text: protein stability index of tFT-peptide fusion in deletion strain of DAS1 (PSI (0-1 scale)); higher = more stable (slower turnover)
readout.kind: protein stability index

Task: State its protein stability index: CTSCGAKFRTNN
Result: 0.723

Task: For the sequence PSLAAHFWRVVG , give its reported protein stability index.
Result: 0.694

Task: Provide one value: measured protein stability index of FSMRWPFRYWVN
Result: 0.569

Task: Answer with the recorded protein stability index of LVVYLQCVACIN only.
Result: 0.0353

Task: For the sequence CESCGYKFRTNN , report protein stability index.
Result: 0.681

Task: Consider the sequence GVVYLSCVACIN and give its recorded protein stability index.
Result: 0.0346

Task: Give the measured protein stability index for VRGAVGGWRLGG
Result: 0.628

Task: Give me measured protein stability index, please, for this sequence: CTSCGLKFRTNN
Result: 0.691

Task: Input RLIQPLYVQFLN , output reported protein stability index.
Result: 0.629

Task: Give recorded protein stability index. ARTRVGLWRGAS
Result: 0.66

Task: Give the value of protein stability index reported for the following: LKILRQKMSHQN
Result: 0.682

Task: Complete the entry with protein stability index for LKILRQKKNHQN
Result: 0.678

Task: For the sequence FSMRWTFRVWVN , give its reported protein stability index.
Result: 0.271

Task: Give protein stability index for RLIQPLPKQFLN
Result: 0.559

Task: Consider the sequence CTTCGYKFRTNN . State its measured protein stability index.
Result: 0.677

Task: Give reported protein stability index value for KKHKKRQKQKIN
Result: 0.587

Task: Report protein stability index for PDKRNHLIKLLM
Result: 0.586

Task: Complete the entry with protein stability index for VRGAVGGWRLVL
Result: 0.68

Task: Input LKILRVKMNHQN , output reported protein stability index.
Result: 0.646

Task: Identify protein stability index associated with the sequence RLIQPLPVQFEN
Result: 0.603

Task: State its protein stability index for this sequence: PDKRNHLIKLLY
Result: 0.587

Task: Please indicate protein stability index recorded for RLIQPDPVQFLN
Result: 0.565

Task: For the sequence LKILMQKMNHQN , report protein stability index.
Result: 0.687

Task: Return reported protein stability index. Input sequence: PSLAASFWRVVC
Result: 0.679

Task: Please supply the value of reported protein stability index for the item KKHKKGQKQKFN
Result: 0.635

Task: Return reported protein stability index. Input sequence: ARWRVGLLRGAS
Result: 0.669

Task: Tell me measured protein stability index for LVVYLYCVACIN please.
Result: 0.0269

Task: Please supply the value of reported protein stability index for the item PSLAKSFWRVVG
Result: 0.702

Task: In one line, give reported protein stability index of the entry PSIAASFWRVVG .
Result: 0.695

Task: Could you please provide reported protein stability index for LVVYLSCVAQIN ? Thanks!
Result: 0.0252

Task: Give the measured protein stability index for STSCGYKFRTNN
Result: 0.669

Task: Query protein stability index for PSLAASFSRVVG
Result: 0.631

Task: Identify measured protein stability index associated with RFIQPLPVQFLN
Result: 0.54

Task: Respond only with protein stability index recorded for FSMKWTFRYWVN
Result: 0.565

Task: For FSMRWHFRYWVN , write its protein stability index.
Result: 0.756

Task: Write down protein stability index measured for item PSLAASFPRVVG
Result: 0.66

Task: # return recorded protein stability index for entry KKGKKGQKQKIN
Result: 0.592

Task: Identify measured protein stability index associated with PDKQNHLIKLLN
Result: 0.593

Task: Find the measured protein stability index of LVVYLSCVACIT and report it.
Result: 0.0345

Task: For the sequence LKILRQFMNHQN , report protein stability index.
Result: 0.664

Task: Tell me measured protein stability index for FSMRWRFRYWVN please.
Result: 0.584
